target-under-test: TAAR1 (Mus musculus, UniProt Q923Y8)
Construct: expressed in transfected cells; host or cells: HEK293 cells (ATCC # CRL-1573), stably transfected with a pIRESneo2 expression plasmid; membranes prepared from them
Sequence (Q923Y8 whole entry): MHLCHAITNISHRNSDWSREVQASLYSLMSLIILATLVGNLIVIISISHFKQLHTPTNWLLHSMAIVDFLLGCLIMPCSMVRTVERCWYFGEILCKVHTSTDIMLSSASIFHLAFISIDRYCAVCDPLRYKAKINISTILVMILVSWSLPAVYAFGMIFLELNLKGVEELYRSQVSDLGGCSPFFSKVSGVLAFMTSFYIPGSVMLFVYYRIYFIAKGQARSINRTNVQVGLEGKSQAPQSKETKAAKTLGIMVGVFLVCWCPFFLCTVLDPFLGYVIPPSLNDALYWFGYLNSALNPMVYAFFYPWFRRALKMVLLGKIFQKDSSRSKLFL
assay-procedure: Radioligand binding to TAAR1, membranes of stably transfected HEK293 cells
measurement-type: pKi
One number for each entry, as −log10 of the molar value.

Observe how each entry below is paired with its result.
COc1ccccc1CCc1cnc[nH]1 [Example 8] :: 7.07
Clc1ccccc1CCc1cnc[nH]1 [Example 5] :: 8.23
Fc1cccc(CCc2cnc[nH]2)c1 [Example 12] :: 8.01
COc1cccc(CCc2cnc[nH]2)c1 [Example 14] :: 7.22
Clc1ccc(CCc2cnc[nH]2)cc1 [Example 16] :: 7.76

For each of the compounds below, state pKi.
1. FC(F)(F)c1cccc(CCc2cnc[nH]2)c1 [Example 13]
2. Clc1cccc(CCc2cnc[nH]2)c1 [Example 11]
3. CCC(Cc1cnc[nH]1)c1ccccc1 (stereo not drawn) [Example 1, 4-(2-Phenyl-butyl)-1H-imidazole]

1. 7.97
2. 8.60
3. 7.22

What pKi value was documented for this compound, Clc1cc(Cl)cc(CCc2cnc[nH]2)c1 [Example 17] ?
8.72

* * *

target-under-test: UniProt Q923Y8
measurement-type: Kd (µM)
Numbers only, in µM.

What Kd value was documented for this compound, c1ccc2c(c1)CCCC2C1=NCCN1 (racemic) [reference compound] ?
0.06

* * *

target-under-test: TAAR1 (Mus musculus)
Construct: expressed in transfected cells; host or cells: HEK293 cells (ATCC # CRL-1573), stably transfected with a pIRESneo2 expression plasmid; membranes prepared from them
assay-procedure: Radioligand binding to TAAR1, membranes of stably transfected HEK293 cells
condition-info: mouse TAAR1; radioligand [3H]-rac-2-(1,2,3,4-tetrahydro-1-naphthyl)-2-imidazoline at 60 nM; 4° C., 30 minutes; read-out: Ki (μM) mouse
measurement-type: log10(Ki) (log10 of the value in µM)
Hello, just confirming the data are log10 of Ki with units of µM.

Observe how each entry below is paired with its result.
c1ncc(COc2ccc3ccoc3c2)[nH]1 :: -1.16
c1ccc2cc(SCc3c[nH]cn3)ccc2c1 :: -1.99
Clc1cccc(OCc2cnc[nH]2)c1Cl :: -1.37

For each of the compounds below, state log10(Ki).
1. Cc1[nH]cnc1CSc1ccc(Cl)cc1
2. Fc1cc(OCc2cnc[nH]2)ccc1Cl

-1.84
-1.10

* * *

target-under-test: TAAR1 (Mus musculus, UniProt Q923Y8)
Construct: expressed in transfected cells; host or cells: HEK293 cells (ATCC # CRL-1573), stably transfected with a pIRESneo2 expression plasmid; membranes prepared from them
assay-procedure: Radioligand binding to TAAR1, membranes of stably transfected HEK293 cells
condition-info: mouse TAAR1; radioligand [3H]-rac-2-(1,2,3,4-tetrahydro-1-naphthyl)-2-imidazoline at 60 nM; 4° C., 30 minutes; read-out: Ki (μM) mouse
Protocol: For the construction of expression plasmids, the coding sequences of human, rat and mouse TAAR 1 were amplified from genomic DNA essentially as described by Lindemann et al. (2005) Genomics 85, 372-385. […] Cells at confluence were rinsed with ice-cold phosphate buffered saline without Ca^2+ and Mg^2+ containing 10 mM EDTA and pelleted by centrifugation at 1000 rpm for 5 minutes at 4° C. […] Protein concentration was determined by the method of Pierce (Rockford, Ill.). […]
measurement-type: Ki
# do not omit the unit; it follows the number

Observe how each entry below is paired with its result.
Clc1ccc(OCc2cnc[nH]2)cc1Cl [Example 36] :: 0.0227 µM
Clc1cccc(SCc2cnc[nH]2)c1Cl [Example 42] :: 0.0041 µM

# get_value(readout= Ki, system= TAAR1 (Mus musculus, UniProt Q923Y8)) for Fc1cccc(OCc2cnc[nH]2)c1F [Example 35]
0.0889 µM
